- target_entity: Histones
- measurement_description: AtheNA, Ab 6.25 ug/ml
attribute_measured: Athena reading (relative luminescence units)
Note: the reply should be a number with no unit written.

Please fill in: Athena reading (relative luminescence units) reported for CH240_4A/293i (antibody, from a related filing, V domains shown) VH: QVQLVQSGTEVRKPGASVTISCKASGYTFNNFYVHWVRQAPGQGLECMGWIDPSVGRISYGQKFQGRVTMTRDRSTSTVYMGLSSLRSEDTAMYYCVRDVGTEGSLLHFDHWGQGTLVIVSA VL: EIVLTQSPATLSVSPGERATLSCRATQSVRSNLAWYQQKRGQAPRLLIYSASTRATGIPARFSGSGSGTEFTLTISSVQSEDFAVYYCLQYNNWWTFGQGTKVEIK = 9
